biological target: CK2α (Homo sapiens, UniProt P68400)
Sequence (P68400 2-329): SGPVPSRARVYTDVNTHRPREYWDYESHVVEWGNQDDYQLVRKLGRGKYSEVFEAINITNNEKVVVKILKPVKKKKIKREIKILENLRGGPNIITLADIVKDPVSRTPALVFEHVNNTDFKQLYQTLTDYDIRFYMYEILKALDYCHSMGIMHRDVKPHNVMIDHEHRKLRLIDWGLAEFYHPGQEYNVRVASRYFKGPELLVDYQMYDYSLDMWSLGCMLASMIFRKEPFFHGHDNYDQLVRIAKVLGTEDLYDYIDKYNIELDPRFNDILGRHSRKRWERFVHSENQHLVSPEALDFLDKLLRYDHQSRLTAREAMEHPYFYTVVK
value_kind: IC50 (nM)
One number for each entry, in nM.

Answered cases to consult:
mol=FC(F)(F)c1ccc2[nH]c(CNCCCCOCCOc3cc(-c4cnoc4)cc4[nH]ncc34)cc2c1 system_tested="CK2α (Homo sapiens, UniProt P68400)" numeric_readout=4.72
mol=FC(F)(F)Oc1ccc(CNCCCCNCCNc2cc(-n3cnnc3)cc3[nH]ncc23)cc1Cl system_tested="CK2α (Homo sapiens, UniProt P68400)" numeric_readout=0.78
mol=c1cc2[nH]c(CNCCCCOCCNc3cc(-c4cnoc4)cc4[nH]ncc34)cc2cc1OC1CCC1 system_tested="CK2α (Homo sapiens, UniProt P68400)" numeric_readout=0.82
mol=O=C(CCNCc1cccc(CO)c1)NCCCNc1cc(-n2cnnc2)cc2[nH]ncc12 system_tested="CK2α (Homo sapiens, UniProt P68400)" numeric_readout=17.5
mol=N#CCc1cc(CNCCCCOC2CN(c3cc(-c4cnoc4)cc4[nH]ncc34)C2)cc(OC(F)(F)F)c1 system_tested="CK2α (Homo sapiens, UniProt P68400)" numeric_readout=8.18
mol=N#CCc1cc(Cl)cc(CNCCCCOC2CN(c3cc(-c4cnoc4)cc4[nH]ncc34)C2)c1 system_tested="CK2α (Homo sapiens, UniProt P68400)" numeric_readout=29.8
mol=N#Cc1nncn1-c1cc(NCCCNC(=O)CCNCc2ccc(OC(F)(F)F)c(Cl)c2)c2cn[nH]c2c1 system_tested="CK2α (Homo sapiens, UniProt P68400)" numeric_readout=56.2

## Task Which measured IC50 belongs to `O=C(CCNCc1cc2ccc(Cl)cc2[nH]1)NCCCNc1cc(-n2cnnc2)cc2[nH]ncc12` , tested on CK2α (Homo sapiens, UniProt P68400)?
## Result 0.78
